# target: UniProt Q9UM73
# Sequence (Q9UM73 19-1620): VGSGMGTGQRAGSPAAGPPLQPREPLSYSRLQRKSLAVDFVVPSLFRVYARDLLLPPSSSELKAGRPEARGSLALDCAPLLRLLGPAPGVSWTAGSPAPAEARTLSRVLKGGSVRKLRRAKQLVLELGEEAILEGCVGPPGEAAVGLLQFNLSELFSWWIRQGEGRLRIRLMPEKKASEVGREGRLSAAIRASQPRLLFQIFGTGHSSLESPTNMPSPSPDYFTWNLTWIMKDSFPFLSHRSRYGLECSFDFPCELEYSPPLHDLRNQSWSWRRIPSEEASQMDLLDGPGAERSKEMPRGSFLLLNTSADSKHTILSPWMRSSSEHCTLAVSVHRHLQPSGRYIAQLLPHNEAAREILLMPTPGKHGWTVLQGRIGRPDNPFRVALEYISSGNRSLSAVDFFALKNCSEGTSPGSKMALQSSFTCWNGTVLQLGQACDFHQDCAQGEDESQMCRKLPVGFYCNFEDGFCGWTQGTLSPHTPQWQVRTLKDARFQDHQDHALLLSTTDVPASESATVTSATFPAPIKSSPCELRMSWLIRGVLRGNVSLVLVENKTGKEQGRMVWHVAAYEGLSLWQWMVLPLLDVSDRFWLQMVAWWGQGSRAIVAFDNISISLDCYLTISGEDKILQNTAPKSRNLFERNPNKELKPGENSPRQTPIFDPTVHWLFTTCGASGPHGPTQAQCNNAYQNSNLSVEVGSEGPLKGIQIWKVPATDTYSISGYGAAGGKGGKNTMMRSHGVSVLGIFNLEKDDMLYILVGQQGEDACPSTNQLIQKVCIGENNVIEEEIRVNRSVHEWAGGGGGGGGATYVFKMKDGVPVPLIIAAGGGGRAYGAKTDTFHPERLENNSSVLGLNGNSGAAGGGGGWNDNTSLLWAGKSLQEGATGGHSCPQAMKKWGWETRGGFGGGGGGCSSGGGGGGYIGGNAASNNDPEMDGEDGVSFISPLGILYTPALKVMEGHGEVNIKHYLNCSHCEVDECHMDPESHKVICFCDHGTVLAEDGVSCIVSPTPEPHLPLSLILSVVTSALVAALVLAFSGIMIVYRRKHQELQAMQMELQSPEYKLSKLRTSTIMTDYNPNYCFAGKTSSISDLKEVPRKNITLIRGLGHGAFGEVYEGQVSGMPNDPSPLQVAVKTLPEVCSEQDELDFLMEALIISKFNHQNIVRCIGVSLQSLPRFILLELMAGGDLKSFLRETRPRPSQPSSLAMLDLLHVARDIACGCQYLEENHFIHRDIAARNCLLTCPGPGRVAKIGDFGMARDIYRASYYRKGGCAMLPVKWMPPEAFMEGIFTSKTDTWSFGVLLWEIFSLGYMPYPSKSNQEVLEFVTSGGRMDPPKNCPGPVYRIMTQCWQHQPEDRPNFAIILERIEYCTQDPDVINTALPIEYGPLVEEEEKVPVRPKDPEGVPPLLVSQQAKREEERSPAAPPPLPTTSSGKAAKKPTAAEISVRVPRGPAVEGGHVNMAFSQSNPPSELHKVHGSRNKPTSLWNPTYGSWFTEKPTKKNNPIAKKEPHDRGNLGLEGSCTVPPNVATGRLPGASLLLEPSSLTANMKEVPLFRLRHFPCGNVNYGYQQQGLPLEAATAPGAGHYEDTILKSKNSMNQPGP
measureName: IC50

N#Cc1ccc(-c2cnc3c(c2)N(Cc2ccccc2)C(=O)CN3)cn1 [Example 28] = > 100 µM
CN1CCN(c2ccc(-c3cnc4c(c3)N(Cc3c(F)ccc(F)c3Cl)CC(=O)N4)cn2)CC1 [Example 437] = 0.1 to 1 µM
CC(c1cc(F)ccc1F)N1C(=O)CNc2ncc(I)cc21 (stereo not shown) [Example 150] = > 100 µM

(Q) Recorded IC50 for COc1cccc(CNC(=O)c2cccc(-c3cnc4c(c3)N(Cc3cc(Cl)ccc3C(F)(F)F)CCN4)c2)c1 [Example 353] , please?
(A) 1 to 10 µM

====

// c-Met (cytoplasmic domain) (Homo sapiens, UniProt P08581) IC50 records

Here are 6 molecules together with their reported answers.
O=C(NCCc1cccs1)c1cnc2c(c1)N(Cc1cc(Cl)ccc1Cl)CCN2 = > 100 µM
O=C(c1cnc2c(c1)N(Cc1cc(Cl)ccc1Cl)CCN2)N1CCN(c2ncnc3ccsc23)CC1 = > 100 µM
O=C(O)c1ccc(-c2cnc3c(c2)N(Cc2cccnc2Cl)CCN3)cc1 = > 100 µM
COC1CCN(C(=O)c2ccc(-c3cnc4c(c3)N(Cc3cc(Cl)ccc3C(F)(F)F)CCN4)cc2)CC1 = 1 to 10 µM
CN1CCN(c2ccc(-c3cnc4c(c3)N(C(=O)Cc3cc(F)ccc3F)CCN4)cn2)CC1 = 10 to 100 µM
O=C(O)c1ccc(-c2cnc3c(c2)N(Cc2cc(F)ccc2F)C(=O)CN3)cc1 = 10 to 100 µM

(Q) Find the recorded IC50 belonging to CN(C)CCCCCCNC(=O)c1ccc(-c2cnc3c(c2)N(Cc2ccccc2)C(=O)CN3)cc1 and report it.
(A) 10 to 100 µM

(Q) I'd like to know its IC50. The molecule in question is O=C(O)c1cccc(-c2cnc3c(c2)N(Cc2cc(Cl)ccc2C(F)(F)F)CCN3)c1
(A) 10 to 100 µM

====

# target: c-Met (cytoplasmic domain) (Homo sapiens)
# Sequence (P08581 956-1390 limits assumed): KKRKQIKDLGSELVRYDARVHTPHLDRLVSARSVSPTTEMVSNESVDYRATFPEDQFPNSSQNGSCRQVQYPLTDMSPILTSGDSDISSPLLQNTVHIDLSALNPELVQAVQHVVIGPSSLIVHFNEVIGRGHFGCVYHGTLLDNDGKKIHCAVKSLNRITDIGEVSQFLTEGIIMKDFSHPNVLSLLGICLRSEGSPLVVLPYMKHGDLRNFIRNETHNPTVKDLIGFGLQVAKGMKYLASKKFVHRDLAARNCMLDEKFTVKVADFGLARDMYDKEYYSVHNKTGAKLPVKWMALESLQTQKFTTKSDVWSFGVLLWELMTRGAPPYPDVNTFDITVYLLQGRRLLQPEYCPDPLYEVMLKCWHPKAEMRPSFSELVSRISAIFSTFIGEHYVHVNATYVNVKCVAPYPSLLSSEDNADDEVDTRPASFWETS
Where a name gives a salt, the structure may show the parent alone.
measureName: IC50

Please review the following examples before continuing.
O=C(NCC(c1ccccc1)c1ccccc1)c1cnc2c(c1)N(Cc1cc(Cl)ccc1Cl)CCN2 [Example 226] = 10 to 100 µM
O=C(c1cnc2c(c1)N(Cc1cc(Cl)ccc1Cl)CCN2)N1CCC(n2c(=O)[nH]c3ccccc32)CC1 [Example 209] = 10 to 100 µM
O=C(c1cnc2c(c1)N(Cc1cc(Cl)ccc1Cl)CCN2)N1CCC(Cc2ccccc2)CC1 [Example 215] = 10 to 100 µM
O=C(c1ccc(-c2cnc3c(c2)N(Cc2c(Cl)cccc2Cl)CCN3)cc1)N1CCC[C@H]1CN1CCCC1 [Example 164] = 1 to 10 µM
FC(F)(F)c1ccc(Cl)cc1CN1CCNc2ncc(I)cc21 [Example 115] = > 100 µM

(Q) For c-Met (cytoplasmic domain) (Homo sapiens), provide IC50 of CN(C)CCCCCCNC(=O)c1ccc(-c2cnc3c(c2)N(Cc2c(Cl)cccc2Cl)C(=O)CN3)cc1 [Example 143, trifluoroacetic acid salt] please.
(A) 1 to 10 µM

(Q) Enter reported IC50 observed with c-Met (cytoplasmic domain) (Homo sapiens) for CN1CCN(C(=O)c2ccc(-c3cnc4c(c3)N(Cc3ccccc3)C(=O)CN4)cc2)CC1 [Example 25, trifluoroacetic acid salt]
(A) 10 to 100 µM
